- System: 783C-6
- Experiment description: High-throughput drug screen, CellTiter-Glo viability, 72 h
- Assay type: cell-based, human
- Set-up: scale not given here
- Test parameters: 783C-6 DSRT analysis; area under the dose-response curve
// reported AUC for each item listed
Please state the value as a number alone, without comment.

{"Line notation": "Nc1ncn([C@H]2C[C@H](O)[C@@H](CO)O2)c(=O)n1", "AUC": 19.6}
{"Line notation": "Cn1cc(-c2ccc(S(=O)(=O)n3ccc(/C=C/C(=O)Nc4ccccc4N)c3)cc2)cn1", "AUC": 57}
{"Line notation": "CC(C)N(CCCNC(=O)Nc1ccc(C(C)(C)C)cc1)C[C@H]1O[C@@H](n2ccc3c(N)ncnc32)[C@H](O)[C@@H]1O", "AUC": 0.7}
{"Line notation": "O=C(CCCCCCNC(=O)c1cnc(N(c2ccccc2)c2ccccc2Cl)nc1)NO", "AUC": 31.7}

Query: Tell me the measured AUC of O=C(NC[C@H](O)CN1CCc2ccccc2C1)c1cc(NC2COC2)ncn1 , please.
Result: 4.5

Query: Tell me the measured AUC of Cc1nn2c([nH]c(=O)c3cccnc32)c1C#N , please.
Result: 0.8

Query: Tell me the measured AUC of CC[C@H](C)n1cc(C)c2c(C(=O)NCc3c(C)cc(C)[nH]c3=O)cc(-c3ccc(N4CCNCC4)nc3)cc21 , please.
Result: 2.7

Query: Tell me the measured AUC of N[C@@H]1CCCN(c2c(/C=C3\SC(=O)NC3=O)cccc2-c2ccccc2)C1 , please.
Result: 19.2

Data origin, for the record: paper PMC12518634
